Target: human TfR ECD (human)
Sequence (chain, as listed by the source): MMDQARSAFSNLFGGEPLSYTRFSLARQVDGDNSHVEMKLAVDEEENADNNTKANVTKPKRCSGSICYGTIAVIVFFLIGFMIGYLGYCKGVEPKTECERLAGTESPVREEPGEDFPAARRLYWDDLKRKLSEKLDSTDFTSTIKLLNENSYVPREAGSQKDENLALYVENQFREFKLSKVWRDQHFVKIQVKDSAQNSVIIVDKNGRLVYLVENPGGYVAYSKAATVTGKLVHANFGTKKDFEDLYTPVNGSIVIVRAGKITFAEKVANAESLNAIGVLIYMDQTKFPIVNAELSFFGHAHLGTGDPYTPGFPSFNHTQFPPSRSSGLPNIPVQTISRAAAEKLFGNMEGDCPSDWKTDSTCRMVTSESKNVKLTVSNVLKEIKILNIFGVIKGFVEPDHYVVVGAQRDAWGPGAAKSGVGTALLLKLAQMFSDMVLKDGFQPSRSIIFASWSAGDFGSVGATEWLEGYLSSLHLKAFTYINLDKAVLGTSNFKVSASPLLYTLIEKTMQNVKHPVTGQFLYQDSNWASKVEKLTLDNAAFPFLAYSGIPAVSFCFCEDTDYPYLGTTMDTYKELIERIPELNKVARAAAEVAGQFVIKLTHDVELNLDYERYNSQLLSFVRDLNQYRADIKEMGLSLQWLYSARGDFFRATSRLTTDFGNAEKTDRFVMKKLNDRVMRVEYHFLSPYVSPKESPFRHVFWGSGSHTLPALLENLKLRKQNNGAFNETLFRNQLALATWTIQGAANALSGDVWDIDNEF
Experiment: SPR
Observed Property: Kd (nM)
Please give a number only; it is taken to be in nM.

-- ask Give its Kd value. Item: Hu15G11.HC34A Fab (antibody, V domains shown) VH: EVQLVQSGAEVKKPGASVKVSCKASGYTFTSYWAHWVRQAPGQRLEWIGEINPTNGRTNYIEKFKSRATLTVDKSASTAYMELSSLRSEDTAVYYCARGTRAYHYWGQGTMVTVSS VL: DIQMTQSPSSLSASVGDRVTITCRASDNLYSNLAWYQQKPGKSPKLLVYDATNLADGVPSRFSGSGSGTDYTLTISSLQPEDFATYYCQHFWGTPLTFGQGTKVEIK
-- reply 7.14
